experiment: log P determination by HPLC on reversed-phase columns (C 18), analogously to OECD Guideline 117; type: physicochemical; settings: reversed-phase C18 HPLC column; acidic range, pH 2.7, 0.1% aqueous formic acid and acetonitrile; read-out: log P[a] / log P(HCOOH)
Class (required): determined from chromatographic logP; valid ranges are L (below 1), M (1 to below 2), H (2 or more)

COMPOUND	CATEGORY LABEL
Cc1cc(C)c(N2CCNC2=O)cc1SCC(F)(F)F	H
CCn1[nH]c(=O)n(C(C)(C)C)c1=O [drawing 120 R1=CH2CH3 R10=C(CH3)3]	M
CCn1[nH]c(=O)n(-c2ccccc2)c1=O	L
Cc1cc(F)c(N2C(=O)C(C)(C)C(=O)N2C)cc1SCC(F)(F)F	H
C=CCn1c(OC)n[nH]c1=O [drawing 121 R1=CH3 R10=CH2CH═CH2]	L
Cn1c(OCC2CC2)n[nH]c1=O [drawing 121 R1=CH2-cyclopropyl R10=CH3]	L
COc1ccc(B(O)O)cc1[S+]([O-])CC(F)(F)F (stereo not shown)	M
CCn1c(=O)n(-c2cc(SCC(F)(F)F)c(C)cc2F)c(=O)n1CC	H
Cc1cc(F)c(-n2c(=O)[nH][nH]c2=O)cc1SCC(F)(F)F	M
